study.target: T1, recombinant human TL1A (human, UniProt O95150 71-251)
T1 construct: homotrimer; biotinylated for SPR capture; the ELISA paragraphs say only 'recombinant TL1A'; also called TNFSF15
T1 chain: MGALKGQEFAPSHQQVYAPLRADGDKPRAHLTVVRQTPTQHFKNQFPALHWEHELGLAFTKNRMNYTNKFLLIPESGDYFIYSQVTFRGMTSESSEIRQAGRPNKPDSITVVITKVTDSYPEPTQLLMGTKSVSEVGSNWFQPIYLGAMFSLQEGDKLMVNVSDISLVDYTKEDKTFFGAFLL
assay.comment: competition ELISA vs bio-TL1A-0002
Below, each entry is listed with its recorded Bioactivity relative to TL1A-0002.
Express your answer in fold, writing the number without its unit.

TL1A-0029 (antibody, IgG1, V domains shown, IgG1/kappa variant of TL1A-0002) VH: QVQLVQSGAEVKKPGASVKVSCKASGYDFTYYGISWVRQAPGQGLEWMGWISTYNGNTHYARMLQGRVTMTTDTSTRTAYMELRSLRSDDTAVYYCARENLYGSGAYRGGMDVWGQGTTVTVSS VL: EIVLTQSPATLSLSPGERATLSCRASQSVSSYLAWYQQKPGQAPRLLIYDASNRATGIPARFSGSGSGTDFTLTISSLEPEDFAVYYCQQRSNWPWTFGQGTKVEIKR: 1.7
TL1A-0071 (antibody, IgG1, V domains shown, IgG1/kappa variant of TL1A-0002) VH: QVQLVQSGAEVKKPGASVKVSCKASGYDFTYYGVSWVRQAPGQGLEWMGWISTYNGNTHYARMLQGRVTMTTDTSTRTAYMELRSLRSDDTAVYYCARENYYGSGAYRGGMDVWGQGTTVTVSS VL: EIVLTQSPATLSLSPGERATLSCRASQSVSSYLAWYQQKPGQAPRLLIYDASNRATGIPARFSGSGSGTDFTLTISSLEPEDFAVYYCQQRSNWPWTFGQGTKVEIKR: 0.9
TL1A-0193 (antibody, IgG1, V domains shown, IgG1/kappa variant of TL1A-0002) VH: QVQLVQSGAEVKKPGASVKVSCKASGYDFTYYGISWVRQAPGQGLEWMGWISTYNGNTHYARMLQGRVTMTTDTSTRTAYMELRSLRSDDTAVYYCAREQYYGSGEYRGGMDVWGQGTTVTVSS VL: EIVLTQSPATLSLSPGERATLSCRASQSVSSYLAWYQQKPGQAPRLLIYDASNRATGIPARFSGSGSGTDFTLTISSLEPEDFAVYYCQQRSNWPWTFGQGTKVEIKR: 2.7

# context switch: different binder, same Bioactivity relative to TL1A-0002
Request: Entry under review: TL1A-0067 (antibody, IgG1, V domains shown, IgG1/kappa variant of TL1A-0002) VH: QVQLVQSGAEVKKPGASVKVSCKASGYDFTFYGISWVRQAPGQGLEWMGWISTYNGNTHYARMLQGRVTMTTDTSTRTAYMELRSLRSDDTAVYYCARENYYGSGAYRGGMDVWGQGTTVTVSS VL: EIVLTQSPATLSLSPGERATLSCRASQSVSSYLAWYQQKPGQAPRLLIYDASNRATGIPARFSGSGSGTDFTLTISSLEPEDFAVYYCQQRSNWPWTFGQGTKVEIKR . Reported Bioactivity relative to TL1A-0002?
Response: 1.1
